Provenance of the data: the supplement of paper PMC10567573

B1: WDFY1 (parent)
chain: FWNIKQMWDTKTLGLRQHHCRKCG

Variants of: B1
Experiment: protein stability index of a GFP-peptide fusion (GPS, HEK-293T) (PSI 1-6); higher = more stable;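 further: lentivirally expressed fusions sorted by FACS into six bins by GFP to DsRed ratio, PSI derived from sequencing read proportions per bin multiplied by bin number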
Conditions: c terminus: a fixed tail appended
Recorded measurements of protein stability index, one per entry
Give a plain numeric answer without units written out.

Take a look at these entries with their results.
1. T10M	2.16
2. H18G	2.39
3. L13K	2.08
4. Q17P	2.13
5. I4T	2.14
6. G14E	2.44
7. K5G	1.96
8. K11I	1.42

Quick one: protein stability index of "R16C" ?
1.59

Quick one: protein stability index of "K22Y" ?
2.2
